target.under.test: HLA-B*45:01
assay.method.text: IEDB peptide-MHC binding, purified MHC/competitive/radioactivity; filed as Kd, often an IC50 or EC50 that approximates it; bounds were set here for any values at or beyond the usual limits of such assays
conditions.used: source organism: SARS coronavirus Tor2
measured.attribute: Kd (nM)
Respond numerically; units are nM and should not be typed.

Solved cases below.
- sequence.record: "WEILKFLITG"
  unit.info: "nM"
  Kd: 1170
- sequence.record: "REGVFVFNG"
  unit.info: "nM"
  Kd: 136
- sequence.record: "METDFLELAM"
  unit.info: "nM"
  Kd: 123
- sequence.record: "CEEMLDNRAT"
  unit.info: "nM"
  Kd: 139

# context switch: different sequence, same Kd
// query Hello, please tell me recorded Kd for this one: `EEVVLKNGEL`
// result 1330

---

Measured Kd, listed per entry for reference.
target.under.test: HLA-A*32:01
assay.method.text: IEDB peptide-MHC binding, purified MHC/competitive/radioactivity; filed as Kd, often an IC50 or EC50 that approximates it; bounds were set here for any values at or beyond the usual limits of such assays
conditions.used: source organism: Vaccinia virus WR
Respond numerically; units are nM and should not be typed.

Solved cases below.
- sequence.record: "RLIVLFEVF"
  measured.attribute: "Kd"
  observed.value: 12.6
- sequence.record: "LTLDIFYLF"
  measured.attribute: "Kd"
  observed.value: 4.4

// query Hello, please tell me recorded Kd for this one: `RMFGSKPTF`
// result 9800

// query Hello, please tell me recorded Kd for this one: `KSAHFLLIF`
// result 0.185

// query Hello, please tell me recorded Kd for this one: `MSIMPVLAY`
// result 99.7

// query Hello, please tell me recorded Kd for this one: `LMFKHLLHP`
// result 11300

// query Hello, please tell me recorded Kd for this one: `ILCYFILIF`
// result 11500

// query Hello, please tell me recorded Kd for this one: `LTIACRVSL`
// result 95.8

---

target.under.test: HLA-A*33:01
assay.method.text: IEDB peptide-MHC binding, purified MHC/competitive/radioactivity; filed as Kd, often an IC50 or EC50 that approximates it; bounds were set here for any values at or beyond the usual limits of such assays
conditions.used: source organism: Vaccinia virus WR
pKd: −log10 of the molar value.
measured.attribute: pKd

Solved cases below.
- sequence.record: "SINSEYIESK"
  target.under.test: "HLA-A*33:01"
  pKd: "≤ 4.15"
- sequence.record: "IFVDTMSIY"
  target.under.test: "HLA-A*33:01"
  pKd: "≤ 4.54"

# context switch: different sequence, same pKd
// query Report value: pKd, system: HLA-A*33:01, sequence: `ELVTRKCPQK`
// result ≤ 4.49

---

target.under.test: HLA-A*02:01
assay.method.text: IEDB peptide-MHC binding, purified MHC/competitive/fluorescence; bounds were set here for any values at or beyond the usual limits of such assays
conditions.used: source organism: Zaire ebolavirus
pIC50: −log10 of the molar value.
measured.attribute: pIC50

- sequence.record: "QGDNDNWWT"
  observed.value: "≤ 3.55"

// query Report value: pIC50, system: HLA-A*02:01, sequence: `KIMASENSS`
// result ≤ 3.93

// query Report value: pIC50, system: HLA-A*02:01, sequence: `GTGPCAGDF`
// result ≤ 3.29
